Assay: activity coefficient (dimensionless); of the first substance listed, at infinite dilution; xn = mol fraction of the nth substance listed
Conditions: 388.15 K; 101 kPa; Liquid; Chromatography; x1 = 0
For each record, write down the corresponding activity coefficient.
Reply briefly: the number, and no unit.

Identify activity coefficient associated with the compound C1C2CC3CC1CC(C2)C3 [adamantane] + CCCCCCCCCCCCCCCCCCC(CCCCCCCCCCCCCCCCCC)CCCCC(CCCCCCCCCCCCCCCCCC)CCCCCCCCCCCCCCCCCC
0.339

In one line, give reported activity coefficient of the entry C1CC[C@H]2CCCC[C@H]2C1 [cis-decahydronaphthalene] + CCCCCCCCCCCCCCCCCCC(CCCCCCCCCCCCCCCCCC)CCCCC(CCCCCCCCCCCCCCCCCC)CCCCCCCCCCCCCCCCCC .
0.278

Provide activity coefficient value for the following compound: c1ccccc1 [benzene] + CCCCCCCCCCCCCCCCCCC(CCCCCCCCCCCCCCCCCC)CCCCC(CCCCCCCCCCCCCCCCCC)CCCCCCCCCCCCCCCCCC
0.266

For the compound CCCc1ccccc1 [propylbenzene] + CCCCCCCCCCCCCCCCCCC(CCCCCCCCCCCCCCCCCC)CCCCC(CCCCCCCCCCCCCCCCCC)CCCCCCCCCCCCCCCCCC , give its measured activity coefficient value.
0.339

Provide only the value of recorded activity coefficient for C1=CCCC=C1 [1,3-cyclohexadiene] + CCCCCCCCCCCCCCCCCCC(CCCCCCCCCCCCCCCCCC)CCCCC(CCCCCCCCCCCCCCCCCC)CCCCCCCCCCCCCCCCCC
0.253

Please report the measured activity coefficient for C1=CCCCC1 [cyclohexene] + CCCCCCCCCCCCCCCCCCC(CCCCCCCCCCCCCCCCCC)CCCCC(CCCCCCCCCCCCCCCCCC)CCCCCCCCCCCCCCCCCC
0.244

For CCC(C)CC(C)C (configuration not stated) [2,4-dimethylhexane] + CCCCCCCCCCCCCCCCCCC(CCCCCCCCCCCCCCCCCC)CCCCC(CCCCCCCCCCCCCCCCCC)CCCCCCCCCCCCCCCCCC , write its activity coefficient.
0.396

* * *

Assay: activity coefficient (dimensionless); of the first substance listed, at infinite dilution; xn = mol fraction of the nth substance listed
Details: 433.15 K; 101 kPa; Liquid; Chromatography; x1 = 0
REPORTED_METRIC: activity coefficient
I'd appreciate a reply containing only the number, no unit.

Could you please provide reported activity coefficient for C#CCCCCCC [1-octyne] + CCCCCCCCCCCCCCCCCCC(CCCCCCCCCCCCCCCCCC)CCCCC(CCCCCCCCCCCCCCCCCC)CCCCCCCCCCCCCCCCCC ? Thanks!
0.411

State, in one line, measured activity coefficient of C1CCCCCC1 [cycloheptane] + CCCCCCCCCCCCCCCCCCC(CCCCCCCCCCCCCCCCCC)CCCCC(CCCCCCCCCCCCCCCCCC)CCCCCCCCCCCCCCCCCC
0.255

# return recorded activity coefficient for input c1ccccc1 [benzene] + CCCCCCCCCCCCCCCCCCC(CCCCCCCCCCCCCCCCCC)CCCCC(CCCCCCCCCCCCCCCCCC)CCCCCCCCCCCCCCCCCC
0.258

Give the reported activity coefficient for this compound. C1CCCCCCC1 [cyclooctane] + CCCCCCCCCCCCCCCCCCC(CCCCCCCCCCCCCCCCCC)CCCCC(CCCCCCCCCCCCCCCCCC)CCCCCCCCCCCCCCCCCC
0.264

Provide activity coefficient value for the following compound: C1CC[C@H]2CCCC[C@@H]2C1 [trans-decahydronaphthalene] + CCCCCCCCCCCCCCCCCCC(CCCCCCCCCCCCCCCCCC)CCCCC(CCCCCCCCCCCCCCCCCC)CCCCCCCCCCCCCCCCCC
0.287

# return recorded activity coefficient for entry CCc1ccccc1 [ethylbenzene] + CCCCCCCCCCCCCCCCCCC(CCCCCCCCCCCCCCCCCC)CCCCC(CCCCCCCCCCCCCCCCCC)CCCCCCCCCCCCCCCCCC
0.304

Return reported activity coefficient. Input compound: C1=CCCCC1 [cyclohexene] + CCCCCCCCCCCCCCCCCCC(CCCCCCCCCCCCCCCCCC)CCCCC(CCCCCCCCCCCCCCCCCC)CCCCCCCCCCCCCCCCCC
0.243

Please give measured activity coefficient of the following entry: C#CCCCCCCCC [1-decyne] + CCCCCCCCCCCCCCCCCCC(CCCCCCCCCCCCCCCCCC)CCCCC(CCCCCCCCCCCCCCCCCC)CCCCCCCCCCCCCCCCCC
0.446

Determine its reported activity coefficient: C#CCCCC [1-hexyne] + CCCCCCCCCCCCCCCCCCC(CCCCCCCCCCCCCCCCCC)CCCCC(CCCCCCCCCCCCCCCCCC)CCCCCCCCCCCCCCCCCC
0.36

Look up activity coefficient of CC(C)CC(C)(C)C [2,2,4-trimethylpentane] + CCCCCCCCCCCCCCCCCCC(CCCCCCCCCCCCCCCCCC)CCCCC(CCCCCCCCCCCCCCCCCC)CCCCCCCCCCCCCCCCCC and report it.
0.406

Determine its reported activity coefficient: Cc1ccccc1 [toluene] + CCCCCCCCCCCCCCCCCCC(CCCCCCCCCCCCCCCCCC)CCCCC(CCCCCCCCCCCCCCCCCC)CCCCCCCCCCCCCCCCCC
0.275

* * *

Test: activity coefficient (dimensionless); of the first substance listed, at infinite dilution; xn = mol fraction of the nth substance listed
Settings: 418.15 K; 101 kPa; Liquid; Chromatography; x1 = 0
REPORTED_METRIC: activity coefficient
The answer should be written as a number, with no unit following it.

Could you please provide reported activity coefficient for CCCCCc1ccccc1 [pentylbenzene] + CCCCCCCCCCCCCCCCCCC(CCCCCCCCCCCCCCCCCC)CCCCC(CCCCCCCCCCCCCCCCCC)CCCCCCCCCCCCCCCCCC ? Thanks!
0.38

Kindly indicate its recorded activity coefficient. Item: CCCCCCC [heptane] + CCCCCCCCCCCCCCCCCCC(CCCCCCCCCCCCCCCCCC)CCCCC(CCCCCCCCCCCCCCCCCC)CCCCCCCCCCCCCCCCCC
0.367

State its activity coefficient: CCCCCCCCCCCCC [tridecane] + CCCCCCCCCCCCCCCCCCC(CCCCCCCCCCCCCCCCCC)CCCCC(CCCCCCCCCCCCCCCCCC)CCCCCCCCCCCCCCCCCC
0.48

* * *

Assay: activity coefficient (dimensionless); of the first substance listed, at infinite dilution; xn = mol fraction of the nth substance listed
Conditions: 403.15 K; 101 kPa; Liquid; Chromatography; x1 = 0
Response field label takes true (1) when activity coefficient is strictly below 0.4 and false (0) in all other cases.

Given the entry C=CCCCCC [1-heptene] + CCCCCCCCCCCCCCCCCCC(CCCCCCCCCCCCCCCCCC)CCCCC(CCCCCCCCCCCCCCCCCC)CCCCCCCCCCCCCCCCCC , would its reported activity coefficient be below 0.4?
true (1)

Does the reported activity coefficient of the following compound sit strictly below 0.4? CCCCCC [hexane] + CCCCCCCCCCCCCCCCCCC(CCCCCCCCCCCCCCCCCC)CCCCC(CCCCCCCCCCCCCCCCCC)CCCCCCCCCCCCCCCCCC
true (1)

Problem: For the compound C=CCCCCCCCC [1-decene] + CCCCCCCCCCCCCCCCCCC(CCCCCCCCCCCCCCCCCC)CCCCC(CCCCCCCCCCCCCCCCCC)CCCCCCCCCCCCCCCCCC , is activity coefficient under 0.4?
false (0)

Is the reported activity coefficient for CCCCCCC [heptane] + CCCCCCCCCCCCCCCCCCC(CCCCCCCCCCCCCCCCCC)CCCCC(CCCCCCCCCCCCCCCCCC)CCCCCCCCCCCCCCCCCC strictly below 0.4?
true (1)

Lab note: activity coefficient threshold 0.4. Does this compound come in strictly under it? CCCCCCCCCC [decane] + CCCCCCCCCCCCCCCCCCC(CCCCCCCCCCCCCCCCCC)CCCCC(CCCCCCCCCCCCCCCCCC)CCCCCCCCCCCCCCCCCC
false (0)

* * *

Assay: activity coefficient (dimensionless); of the first substance listed, at infinite dilution; xn = mol fraction of the nth substance listed
Details: 433.15 K; 101 kPa; Liquid; Chromatography; x1 = 0
REPORTED_METRIC: activity coefficient
Simply state the number, no unit and no words.

Give activity coefficient for the following compound: CCCCCCCCC [nonane] + CCCCCCCCCCCCCCCCCCC(CCCCCCCCCCCCCCCCCC)CCCCC(CCCCCCCCCCCCCCCCCC)CCCCCCCCCCCCCCCCCC
0.406

Annotate the compound CC(C)CC(C)C [2,4-dimethylpentane] + CCCCCCCCCCCCCCCCCCC(CCCCCCCCCCCCCCCCCC)CCCCC(CCCCCCCCCCCCCCCCCC)CCCCCCCCCCCCCCCCCC with its measured activity coefficient.
0.4

Recall and state the measured activity coefficient for CCC(C)CC(C)C (centres undefined) [2,4-dimethylhexane] + CCCCCCCCCCCCCCCCCCC(CCCCCCCCCCCCCCCCCC)CCCCC(CCCCCCCCCCCCCCCCCC)CCCCCCCCCCCCCCCCCC .
0.405

Note activity coefficient for the compound shown: CCCCCCc1ccccc1 [hexylbenzene] + CCCCCCCCCCCCCCCCCCC(CCCCCCCCCCCCCCCCCC)CCCCC(CCCCCCCCCCCCCCCCCC)CCCCCCCCCCCCCCCCCC
0.401
